Source listed as patent US12180193B2.

- target-entity: BRAF V600E (Homo sapiens, UniProt P15056, V600E)
- Construct: expressed in transfected cells
- Sequence (P15056 whole entry V600E): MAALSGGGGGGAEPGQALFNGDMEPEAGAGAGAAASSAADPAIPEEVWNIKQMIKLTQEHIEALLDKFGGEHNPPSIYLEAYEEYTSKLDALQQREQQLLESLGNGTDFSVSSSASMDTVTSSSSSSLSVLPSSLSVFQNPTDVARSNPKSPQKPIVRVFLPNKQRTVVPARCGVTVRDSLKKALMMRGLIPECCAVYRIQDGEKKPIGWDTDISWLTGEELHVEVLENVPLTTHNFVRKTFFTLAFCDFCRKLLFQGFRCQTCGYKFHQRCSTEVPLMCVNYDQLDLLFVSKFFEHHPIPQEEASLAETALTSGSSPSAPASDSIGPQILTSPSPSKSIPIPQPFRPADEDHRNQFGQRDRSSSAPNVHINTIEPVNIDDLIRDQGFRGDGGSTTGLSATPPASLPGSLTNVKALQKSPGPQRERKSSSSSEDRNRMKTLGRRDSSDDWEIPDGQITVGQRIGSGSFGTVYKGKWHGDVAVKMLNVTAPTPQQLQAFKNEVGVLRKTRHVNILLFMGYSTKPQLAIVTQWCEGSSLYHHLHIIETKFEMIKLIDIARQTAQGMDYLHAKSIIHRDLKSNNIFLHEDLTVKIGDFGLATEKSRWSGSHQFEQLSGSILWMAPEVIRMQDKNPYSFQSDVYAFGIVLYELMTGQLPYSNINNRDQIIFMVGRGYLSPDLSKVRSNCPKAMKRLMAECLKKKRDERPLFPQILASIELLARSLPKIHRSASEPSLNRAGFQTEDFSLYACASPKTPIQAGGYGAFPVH
- assay-remarks: Cellular assay of target protein degradation, T-Rex 293 cells stably transfected with HA-BRAF_V600E (HA immunofluorescence, high content imaging)
- Type: cell-based
- recorded-conditions: half maximal degradation, T-Rex 293 HA-BRAF V600E; read-out: BRaf V600E DC50
In this section, each of the compounds is paired with its reported DC50.

Worked examples, 3 compounds total:
compound	DC50
O=C1CCC(N2Cc3cc(O[C@H]4C[C@]5(COCCN5CC5CCN(c6ccc(-c7cnc8[nH]cc(C(=O)c9c(F)ccc(NS(=O)(=O)N%10CC[C@@H](F)C%10)c9F)c8c7)cc6)CC5)C4)ccc3C2=O)C(=O)N1 (stereo partly drawn) [Compound 14]	> 500 nM
O=C1CC[C@@H](N2Cc3cc(N4CCC(CN5CC6(C5)CN(c5ccc(-c7cnc8[nH]cc(C(=O)c9c(F)ccc(NS(=O)(=O)N%10CC[C@@H](F)C%10)c9F)c8c7)cc5)C6)CC4)c(F)cc3C2=O)C(=O)N1 [Compound 56]	5 to 50 nM
COc1cc(OCCCCN2CCN(c3ccc(-c4cnc5[nH]cc(C(=O)c6c(F)ccc(NS(=O)(=O)N7CC[C@@H](F)C7)c6F)c5c4)cc3)CC2)cc2c1C(=O)N(C1CCC(=O)NC1=O)C2 (stereo partly drawn) [Compound 331]	5 to 50 nM

Q: Input O=C1CCC(N2Cc3cc(N4CC5(CN(CC6CCN(c7ccc(-c8cnc9[nH]cc(C(=O)c%10c(F)ccc(NS(=O)(=O)N%11CCC(F)(F)C%11)c%10F)c9c8)cc7)CC6)C5)C4)ccc3C2=O)C(=O)N1 (stereo not drawn) [Compound 246] , output reported DC50.
Result: 5 to 50 nM

Q: Input O=C1CC[C@H](N2Cc3cc([C@@H](O)CCN4CCC(c5ccc(-c6cnc7[nH]cc(C(=O)c8c(F)ccc(NS(=O)(=O)N9CC[C@@H](F)C9)c8F)c7c6)cc5)CC4)ccc3C2=O)C(=O)N1 [Compound 71] , output reported DC50.
Result: 5 to 50 nM
